Where do the numbers come from? From the supplement of paper PMC10126150.

Test system: ATP;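 also: ATP exposure 15 min at 22 °C before imaging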
Experiment: switch fluorescence ratio, 500 uM ATP over buffer (Cy3 cluster intensity, sum of 5 cycles each) (fold (ratio)); higher = stronger signal-on switching upon ATP binding; sequences stand for … in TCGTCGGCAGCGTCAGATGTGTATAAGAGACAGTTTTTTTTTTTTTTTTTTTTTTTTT…TC
Details: aptamer strand: ATP DNA aptamer (quencher-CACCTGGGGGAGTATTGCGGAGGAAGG + anchor), 100 nM annealed; ATP concentration: 500 uM
Exercise: state measured switch fluorescence ratio for each of the sequences provided.
Lab note: jot down the number only; don't add units.

Asked: Read the entry TTTAGGTTCA and write its reported switch fluorescence ratio.
Given back: 0.98

Asked: Note switch fluorescence ratio for the sequence shown: TTTTGGGGAA
Given back: 1

Asked: Give me measured switch fluorescence ratio, please, for this sequence: AGGGGGTTTA
Given back: 0.999

Asked: Please give measured switch fluorescence ratio of the following entry: TCTGGGTAGC
Given back: 1

Asked: Tell me its switch fluorescence ratio given CGTAGGGTGT as the entry.
Given back: 1

Asked: # return recorded switch fluorescence ratio for entry ATTTGTAAGC
Given back: 0.991

Asked: Read off the recorded switch fluorescence ratio for GATGTGTTCT
Given back: 0.988

Asked: Please give the documented switch fluorescence ratio of TTTGTAAAGA
Given back: 1

Asked: Given TCGATTTGAT , respond with its switch fluorescence ratio.
Given back: 0.985

Asked: Please indicate switch fluorescence ratio recorded for AAAGCGAAGG
Given back: 1.01

Asked: Give a short answer stating reported switch fluorescence ratio for CGTCATGATG .
Given back: 1

Asked: Name the recorded switch fluorescence ratio of the item TTTGGTGGAA in your answer.
Given back: 1.01

Asked: Identify measured switch fluorescence ratio associated with AAAAAAAGAT
Given back: 1.01

Asked: Dear colleague, please send me the reported switch fluorescence ratio for ACGGAGACGG when you can.
Given back: 0.979

---

Test system: ATP;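 also: ATP exposure 15 min at 22 °C before imaging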
Assay: switch fluorescence ratio, 500 uM ATP over buffer (Cy3 cluster intensity, sum of 5 cycles each) (fold (ratio)); higher = stronger signal-on switching upon ATP binding; sequences stand for … in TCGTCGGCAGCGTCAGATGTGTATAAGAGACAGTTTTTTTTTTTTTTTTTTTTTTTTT…TC
Conditions: aptamer strand: ATP DNA aptamer (quencher-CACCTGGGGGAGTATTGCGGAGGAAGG + anchor), 100 nM annealed; ATP concentration: 500 uM
Give switch fluorescence ratio for every item shown.
Enter the number alone.

Asked: Answer with the recorded switch fluorescence ratio for the sequence listed here: GAGAAGAGGG
Given back: 1.04

Asked: Could you please provide reported switch fluorescence ratio for TTGTCCTGTG ? Thanks!
Given back: 1.02

Asked: Please supply the value of reported switch fluorescence ratio for the item ATCTGTTTTG
Given back: 1.02

Asked: Indicate its recorded switch fluorescence ratio; the sequence in question is GATATTTTAG
Given back: 1.01

Asked: For GTGGTAGGGA , write its switch fluorescence ratio.
Given back: 0.98

Asked: State its switch fluorescence ratio for this sequence: TAGTGCTGCA
Given back: 0.969

Asked: Answer with the recorded switch fluorescence ratio of GCAGGGTAGC only.
Given back: 1.04

Asked: Answer with the recorded switch fluorescence ratio of TGAAAGTTTG only.
Given back: 1.01

Asked: Note switch fluorescence ratio for the sequence shown: GGGTATGTCC
Given back: 0.989

Asked: Output measured switch fluorescence ratio for this item: ATGAGGGCTA
Given back: 0.983

Asked: Give me measured switch fluorescence ratio, please, for this sequence: AAATTGGACA
Given back: 1.04

Asked: Name the recorded switch fluorescence ratio of the sequence listed here: TGGCGTTTAC
Given back: 1.46

Asked: Provide measured switch fluorescence ratio value, entry: AATGGAGAAC
Given back: 1.01

Asked: Identify measured switch fluorescence ratio corresponding to AGAGAATACG
Given back: 1

Asked: State its switch fluorescence ratio: TCGTGGGGGA
Given back: 1.02

Asked: Answer with the recorded switch fluorescence ratio of TATTAATAA only.
Given back: 1

Asked: Given GCTATTAAGT , respond with its switch fluorescence ratio.
Given back: 0.969

Asked: Give the reported switch fluorescence ratio for this sequence. GAGCATTTCC
Given back: 1.1

Asked: Tell me switch fluorescence ratio reported for GACTAATAGG
Given back: 0.992

Asked: Quickly give me recorded switch fluorescence ratio for AAGGTTGGTT
Given back: 0.983

Asked: Quote switch fluorescence ratio reported for CCCCATTTTT please.
Given back: 1.06

Asked: Tell me measured switch fluorescence ratio for GGACTCGGGG please.
Given back: 1.04

Asked: # return recorded switch fluorescence ratio for entry GGCTTATGGA
Given back: 0.98

Asked: Read off the recorded switch fluorescence ratio for TGATTGGATG
Given back: 0.985

Asked: Identify the reported switch fluorescence ratio for the following entry. CCGCGGGTTT
Given back: 1.08

Asked: Provide switch fluorescence ratio value for the following sequence: CGGAGGGTGT
Given back: 0.997

Asked: Supply reported switch fluorescence ratio belonging to this sequence: TTTTTGGAAA
Given back: 1.01

Asked: Answer with reported switch fluorescence ratio of GATATTAGTG
Given back: 0.983

Asked: Give reported switch fluorescence ratio value for ATAAGGATAG
Given back: 1

Asked: Please look at this sequence and report its switch fluorescence ratio: AAGTAAATTT
Given back: 1.02

Asked: Let me know recorded switch fluorescence ratio for CGGTTAGCGG , thanks.
Given back: 0.983

Asked: Return switch fluorescence ratio for the following sequence: GGGTCCATCT
Given back: 1

Asked: // fetch switch fluorescence ratio given entry ACGCTCCTAC
Given back: 2.64

Asked: Give me measured switch fluorescence ratio, please, for this sequence: AGAATATTAA
Given back: 0.978

Asked: Provide only the value of recorded switch fluorescence ratio for TTACGGCCAA
Given back: 1.26

Asked: Let me know recorded switch fluorescence ratio for CTTTGTATGG , thanks.
Given back: 1

Asked: Tell us which switch fluorescence ratio value is on record for AGGGGAGGAC
Given back: 1.03

Asked: Using the record for GAATTTTTTA , state its measured switch fluorescence ratio.
Given back: 0.999

Asked: Identify the reported switch fluorescence ratio for the following entry. TAATAATGGG
Given back: 1.02

Asked: Consider the sequence GTGGGGGCTT and give its recorded switch fluorescence ratio.
Given back: 0.947

Asked: Tell me switch fluorescence ratio reported for AGAGCGTGGT
Given back: 0.999

Asked: Provide one value: measured switch fluorescence ratio of CGGATTGAAT
Given back: 1

Asked: Retrieve switch fluorescence ratio measured for GCTTTACTCA and print it.
Given back: 1.36

Asked: Name the recorded switch fluorescence ratio of the item CCGGGTTGTA in your answer.
Given back: 1.02

Asked: Return reported switch fluorescence ratio. Input sequence: TGGGGTCGGG
Given back: 1

Asked: Assign switch fluorescence ratio to the following record: TTTAGATTCT
Given back: 0.992

Asked: Determine from records and report switch fluorescence ratio for ATCTATCTTG
Given back: 0.978

Asked: Look up and report measured switch fluorescence ratio for this entry: CGTGGGGGCG
Given back: 1.01

Asked: State its switch fluorescence ratio for this sequence: CTATTAAGGT
Given back: 0.98

Asked: Return switch fluorescence ratio (reported value) for this sequence: GGGTATAGGG
Given back: 1.01

Asked: Supply recorded switch fluorescence ratio for GAGGTTATCA here.
Given back: 1.01

Asked: Specify measured switch fluorescence ratio for TACGTCCCGG .
Given back: 1.08

Asked: Provide switch fluorescence ratio value for the following sequence: ATGGTGGGT
Given back: 0.978

Asked: Give the measured switch fluorescence ratio for AATTATGGGC
Given back: 1.02

Asked: Indicate its recorded switch fluorescence ratio; the sequence in question is CGGTTGGGGT
Given back: 0.989

Asked: Find the measured switch fluorescence ratio of CAGTGCGTGT and report it.
Given back: 1

Asked: Note switch fluorescence ratio for the sequence shown: TTATACATTG
Given back: 1.02

Asked: Indicate its recorded switch fluorescence ratio; the sequence in question is TAGCTGTACA
Given back: 1.01

Asked: Input ATTGAACGGG , output reported switch fluorescence ratio.
Given back: 1.02

Asked: // fetch switch fluorescence ratio given entry GGTGTAGGT
Given back: 0.986

Asked: Annotate the sequence ACGAGTGGCG with its measured switch fluorescence ratio.
Given back: 0.933

Asked: Quickly give me recorded switch fluorescence ratio for CGAATCTTGT
Given back: 1.01

Asked: Determine from records and report switch fluorescence ratio for GGGGTCTGCG
Given back: 1.03

Asked: Note down switch fluorescence ratio recorded for GTGCTTGGAA
Given back: 0.994

Asked: Given CACCAGTCAA , respond with its switch fluorescence ratio.
Given back: 1.56

Asked: Write down switch fluorescence ratio measured for item ACGTGGTATG
Given back: 1.02

Asked: # return recorded switch fluorescence ratio for entry CATCGGTCTT
Given back: 0.958

Asked: Return reported switch fluorescence ratio. Input sequence: GGGATCGAGG
Given back: 1.01

Asked: Supply switch fluorescence ratio value. Item: CAAGGTATTG
Given back: 0.987

Asked: Given the sequence CATACATCCG , write its reported switch fluorescence ratio.
Given back: 1.07

Asked: # return recorded switch fluorescence ratio for entry AGGATCCTCG
Given back: 0.992

Asked: Tell me measured switch fluorescence ratio for TCTCATTGGG please.
Given back: 0.987

Asked: In one line, give reported switch fluorescence ratio of the entry TATAATCCTG .
Given back: 0.992

Asked: Please report the measured switch fluorescence ratio for GTGCCTCCTG
Given back: 1.03
